- system: Myelin-associated glycoprotein (Mus musculus)
- Sequence (P20917 whole entry): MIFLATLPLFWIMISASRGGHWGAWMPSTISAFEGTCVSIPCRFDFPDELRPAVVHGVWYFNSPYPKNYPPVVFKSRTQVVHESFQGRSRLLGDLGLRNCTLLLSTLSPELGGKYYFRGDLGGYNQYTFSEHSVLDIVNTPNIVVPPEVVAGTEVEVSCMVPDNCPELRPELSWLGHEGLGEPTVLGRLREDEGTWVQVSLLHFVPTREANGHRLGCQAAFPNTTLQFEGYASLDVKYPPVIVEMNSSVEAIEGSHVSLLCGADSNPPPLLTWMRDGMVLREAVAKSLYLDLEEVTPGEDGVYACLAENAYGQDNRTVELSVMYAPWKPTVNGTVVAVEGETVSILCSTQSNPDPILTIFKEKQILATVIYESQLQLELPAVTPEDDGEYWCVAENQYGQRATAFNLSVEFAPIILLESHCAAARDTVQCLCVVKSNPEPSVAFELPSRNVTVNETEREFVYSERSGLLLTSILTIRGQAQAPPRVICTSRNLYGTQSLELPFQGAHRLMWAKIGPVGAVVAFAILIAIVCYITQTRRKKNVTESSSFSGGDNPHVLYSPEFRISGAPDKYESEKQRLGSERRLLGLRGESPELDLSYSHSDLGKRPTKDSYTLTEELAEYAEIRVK
- measurement_notes: Binding affinity to mouse MAGd1-3Fc expressed in CHO-Lec 3.2.8.1 cells under HBS-EP condition by CM5 chip SPR analysis
measure: Kd (µM)

1) CC(=O)N[C@H]1[C@H]([C@@H](O)[C@H](O)CNC(=O)c2ccccc2)O[C@@](OCc2ccccc2)(C(=O)O)C[C@@H]1O: 21.8

----------
- measurement_notes: Octanol-water distribution coefficient, log D at pH 7.4 by shake-flask technique
- Type: physicochemical
Response field label takes 1.0 when logD is strictly below 0.06 and 0.0 in all other cases.

1) CC(=O)N[C@H]1[C@H]([C@@H](O)[C@H](O)CNC(=O)c2ccc(Cl)cc2)O[C@@](OCc2ccc(F)cc2)(C(=O)O)C[C@@H]1O: 1.0
2) O=C(NC[C@@H](O)[C@H](O)[C@@H]1O[C@@](OCc2cccc(F)c2F)(C(=O)O)C[C@H](O)[C@H]1NS(=O)(=O)c1ccccc1[N+](=O)[O-])c1ccc(Cl)cc1: 0.0
3) CC(=O)N[C@H]1[C@H]([C@@H](O)[C@H](O)CNC(=O)c2ccc(Cl)cc2)O[C@@](OCc2c(F)c(F)c(F)c(F)c2F)(C(=O)O)C[C@@H]1O: 1.0
4) O=C(NC[C@@H](O)[C@H](O)[C@@H]1O[C@@](OCc2cccc(F)c2F)(C(=O)O)C[C@H](O)[C@H]1NC(=O)C1CCC1)c1ccc(Cl)cc1: 0.0
5) CS(=O)(=O)N[C@H]1[C@H]([C@@H](O)[C@H](O)CNC(=O)c2ccc(Cl)cc2)O[C@@](OCc2cccc(F)c2F)(C(=O)O)C[C@@H]1O: 1.0
6) O=C(CCl)N[C@H]1[C@H]([C@@H](O)[C@H](O)CNC(=O)c2ccc(Cl)cc2)O[C@@](OCc2cccc(F)c2F)(C(=O)O)C[C@@H]1O: 0.0
7) CC(=O)N[C@H]1[C@H]([C@@H](O)[C@H](O)CNC(=O)c2ccc(Cl)cc2)O[C@@](OCc2cccc(Cl)c2Cl)(C(=O)O)C[C@@H]1O: 0.0
8) CC(=O)N[C@H]1[C@H]([C@@H](O)[C@H](O)CNC(=O)c2ccc(Cl)cc2)O[C@@](OCc2cccc(F)c2F)(C(=O)O)C[C@@H]1O: 1.0
9) CC(=O)N[C@H]1[C@H]([C@@H](O)[C@H](O)CNC(=O)c2ccc(Cl)cc2)O[C@@](OCc2ccc(Cl)cc2)(C(=O)O)C[C@@H]1O: 0.0
10) O=C(CF)N[C@H]1[C@H]([C@@H](O)[C@H](O)CNC(=O)c2ccc(Cl)cc2)O[C@@](OCc2cccc(F)c2F)(C(=O)O)C[C@@H]1O: 1.0
11) CC(=O)N[C@H]1[C@H]([C@@H](O)[C@H](O)CNC(=O)c2ccc(Cl)cc2)O[C@@](OCc2ccc3ccccc3c2)(C(=O)O)C[C@@H]1O: 0.0
12) O=C(NC[C@@H](O)[C@H](O)[C@@H]1O[C@@](OCc2cccc(F)c2F)(C(=O)O)C[C@H](O)[C@H]1NC(=O)C1CC1)c1ccc(Cl)cc1: 0.0
